target: BRD9-GFP (Homo sapiens); construct: CHYSEL (2A cis-acting hydrolase element) remnant after GFP; mCherry is split off as a separate protein (C); expressed in transfected cells; host or cells: HEK293A cells (Invitrogen R70507), lentiviral transduction with pLenti6-BRD9-GFP-CHYSEL-mCherry, blasticidin selection; test: BRD9-GFP protein abundance flow cytometry assay in HEK293A cells; type: cell-based; details: HEK293A-BRD9-GFP-CHYSEL-mCherry cells, 24 h at 37° C., 10-point 1:3 dilution; concentration at which 50% maximal degradation was observed
// classify: if (DC50 < 40 nM) true (1) else false (0)

1) CCCCn1cc(-c2ccc(OC3CCN(CC4CCN(C(=O)c5ccc(OC)c(N6CCC(=O)NC6=O)c5)CC4)CC3)c(OC)c2)c2ccncc2c1=O; true (1)
2) COc1ccc(C(=O)N2CCC(OC3CCN(Cc4c(OC)cc(-c5cc(C)c(=O)n(C)c5)cc4OC)CC3)CC2)cc1N1CCC(=O)NC1=O; false (0)
3) CCCCn1cc(-c2ccc(O[C@H]3CC[C@@H](OC4CCN(C(=O)c5ccc(OC)c(N6CCC(=O)NC6=O)c5)CC4)CC3)cc2)c2ccncc2c1=O; true (1)
4) CCCCn1cc(-c2cc(OC)c(CN3CCC(OC4CCN(CCn5cccc(CN6CCC(=O)NC6=O)c5=O)CC4)CC3)c(OC)c2)c2ccncc2c1=O [Compound D2]; true (1)
5) CCCCn1cc(-c2cc(OC)c(CCN3CCC(OC4CCN(CCn5cccc(CN6CCC(=O)NC6=O)c5=O)CC4)CC3)cc2OC)c2ccncc2c1=O; false (0)
6) COc1cc(-c2cn(C)c(=O)c3cnccc23)cc(F)c1CN1CCC(OC2CCN(CCn3cccc(CN4CCC(=O)NC4=O)c3=O)CC2)CC1; false (0)

* * *

Biological target: BRD9-GFP (Homo sapiens, UniProt Q9H8M2)
Construct: CHYSEL (2A cis-acting hydrolase element) remnant after GFP; mCherry is split off as a separate protein (C); expressed in transfected cells; host or cells: HEK293A cells (Invitrogen R70507), lentiviral transduction with pLenti6-BRD9-GFP-CHYSEL-mCherry, blasticidin selection
Sequence (Q9H8M2 1-597): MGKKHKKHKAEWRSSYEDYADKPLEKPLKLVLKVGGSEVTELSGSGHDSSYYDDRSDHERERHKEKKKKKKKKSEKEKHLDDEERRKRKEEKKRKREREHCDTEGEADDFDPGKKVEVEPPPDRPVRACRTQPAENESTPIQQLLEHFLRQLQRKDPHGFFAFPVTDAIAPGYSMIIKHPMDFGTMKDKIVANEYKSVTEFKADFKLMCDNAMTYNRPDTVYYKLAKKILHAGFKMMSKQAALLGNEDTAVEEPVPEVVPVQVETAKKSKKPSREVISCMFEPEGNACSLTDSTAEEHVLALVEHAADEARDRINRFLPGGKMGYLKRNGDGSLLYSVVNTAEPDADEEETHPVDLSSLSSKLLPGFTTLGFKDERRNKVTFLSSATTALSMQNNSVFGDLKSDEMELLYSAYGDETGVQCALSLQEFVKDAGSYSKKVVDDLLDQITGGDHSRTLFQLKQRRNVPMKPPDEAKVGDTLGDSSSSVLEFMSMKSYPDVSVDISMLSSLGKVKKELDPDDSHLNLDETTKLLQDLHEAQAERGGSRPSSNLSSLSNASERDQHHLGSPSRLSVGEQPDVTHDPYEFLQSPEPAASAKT
Test: BRD9-GFP protein abundance flow cytometry assay in HEK293A cells
Assay type: cell-based
Details: HEK293A-BRD9-GFP-CHYSEL-mCherry cells, 24 h; % protein remaining at the concentration at which maximum degradation is seen
Experimental: Compounds of the invention were tested in the following cellular assays. […] BRD9-GFP protein abundance flow cytometry assay in HEK293A cells: Degradation of BRD9 was measured in HEK293A cells expressing BRD9-GFP and mCherry from a stably integrated second generation bicistronic BRD9-GFP-CHYSELmCherry construct. Reduction of the GFP signal measured by flow cytometry served as readout for BRD9 degradation after degrader treatment. […]
readoutName: BRD9 Deg Amax % (%)

1) CCCCn1cc(-c2ccc(O[C@@H]3CCN(CC4CCN(C(=O)c5ccc(OC)c(N6CCC(=O)NC6=O)c5)CC4)C[C@H]3F)c(F)c2)c2ccncc2c1=O; 19.48
2) CCCCCCn1cc(-c2cc(OC)c(CCN3CCC(OC4CCN(C(=O)c5ccc(OC)c(N6CCC(=O)NC6=O)c5)CC4)CC3)c(OC)c2)c2ccncc2c1=O; 19.61
3) COc1ccc(C(=O)N2CCC(CN3CCC(Oc4c(OC)cc(-c5cn(C)c(=O)c6cnccc56)cc4OC)CC3)CC2)cc1N1CCC(=O)NC1=O; 12.25
4) COc1cc(-c2cn(C)c(=O)c3cnccc23)cc(OC)c1CCN1CCC(OC2CCN(C(=O)c3cccc(N4CCC(=O)NC4=O)c3)CC2)CC1; 14.20
5) CCCCn1cc(-c2cc(OC)c(CCN3CCC(OC4CCN(CCn5cccc(CN6CCC(=O)NC6=O)c5=O)CC4)CC3)cc2OC)c2ccncc2c1=O; 17.62
6) COc1ccc(C(=O)N2CCC(CN3CCC(Oc4ccc(-c5cn(C)c(=O)c6cnccc56)cc4)CC3)CC2)cc1N1CCC(=O)NC1=O; 13.46
